# Test system: UO-31
# PROTOCOL_DESCRIPTION: NCI tumour cell line growth inhibition, 48 h
Calls of active or inactive are those of the source. Rule as the data show it: active = GI50 up to about 1.1 µM and inactive = higher.
Write down the outcome that applies. Available outcomes: yes = active, no = inactive

{"columns": ["MOLECULE", "TARGET_SYSTEM", "GROUP"],
 "data": [
  ["C[C@H](NC(=O)C(Cc1ccccc1)(Cc1ccc(O)cn1)NC(=O)c1ccccc1)c1ccccc1 (stereo partly drawn)", "UO-31", "no"],
  ["N#CC1CCCCOCCOCCOCCOCCOCCCCCC1=O (stereo not drawn)", "UO-31", "no"],
  ["CC1=NNC(=O)C1C1CC(c2c[nH]c3ccccc23)=NNC1=S (stereo not drawn)", "UO-31", "no"],
  ["COC(=O)c1cnc(Cl)cn1", "UO-31", "no"],
  ["CC(=O)O[C@H]1C=CC(=O)C(C)CC1C (stereo partly drawn)", "UO-31", "no"]
]}

QUERY: For COc1ccc(C(C2=C(O)COC2=O)c2cc3c(cc2O)OCO3)cc1OC (stereo not drawn) , which call appears in the assay record?
RESULT: no

QUERY: What classification did S=C(Nc1ccc2cn[nH]c2c1)Nc1ccc2cn[nH]c2c1 end up with in this test?
RESULT: no

QUERY: Recorded call for COC(=O)C1C2C=CC(C2)C1(C(=O)OC)[S+]([O-])CC12CCC(CC1O)C2(C)C (stereo not drawn) ?
RESULT: no

QUERY: What is the recorded call for this molecule in the test? O=S(=O)(Nc1ccccc1)c1ccc(-c2c3nc(c(-c4ccc(S(=O)(=O)Nc5ccccc5)cc4)c4ccc([nH]4)c(-c4ccc(S(=O)(=O)Nc5ccccc5)cc4)c4nc(c(-c5ccc(S(=O)(=O)Nc6ccccc6)cc5)c5ccc2[nH]5)C=C4)C=C3)cc1
RESULT: no

QUERY: Test call for this molecule, please: COc1cccc(C2c3cc4c(cc3OC(N3CCCCC3)C2C)OCO4)c1O (stereo not drawn)
RESULT: no
